The reported numbers originate from patent EP4603105A1.

Test system: human lung cancer strain NCI-H441
Format: cell-based
Where a SMILES comes first, the peptide text is derived from it. Bridges are numbered along the chain shown (N, C = ends). [ ]: non-standard residue; d: D form. The star is where a group is joined. hPhe(3-Cl-4-CF3) = N[C@@H](CCc1ccc(C(F)(F)F)c(Cl)c1)C(=O)O; NPrPhe(4-CF3) = CCCN[C@@H](Cc1ccc(C(F)(F)F)cc1)C(=O)O; NMeGly(cPent) = CN[C@H](C(=O)O)C1CCCC1; NMeD = CN[C@@H](CC(=O)O)C(=O)O; NMeL = CN[C@@H](CC(C)C)C(=O)O; Azetidin(1-yl) = C1CN(*)C1; Ac5c = NC1(C(=O)O)CCCC1; Sar = CNCC(=O)O
observed property: pIC50
Please express pIC50 as -log10 of the molar concentration.

input: Please give the measured pIC50 for this compound: CCCN1C(=O)CN(C)C(=O)CN(C)C(=O)[C@H]([C@@H](C)CC)NC(=O)[C@H](CC(C)C)N(C)C(=O)C[C@@H](C(=O)N2CCC2)N(C)C(=O)[C@H](C2CCCC2)N(C)C(=O)C2(CCCC2)NC(=O)[C@@H]2CCCN2C(=O)[C@H](CCc2ccc(C(F)(F)F)c(Cl)c2)NC(=O)CN(C)C(=O)[C@@H]1Cc1ccc(C(F)(F)F)cc1 [PP0172] ([NMeL]I[Sar][Sar][NPrPhe(4-CF3)][Sar][hPhe(3-Cl-4-CF3)]P[Ac5c][NMeGly(cPent)][NMeD]-{Azetidin(1-yl)}; lactam N-11)
output: 8.42

====

Biological target: GDP-bound KRAS wild-type protein (Homo sapiens, UniProt P01116)
Sequence (P01116 1-188 isoform P01116-2): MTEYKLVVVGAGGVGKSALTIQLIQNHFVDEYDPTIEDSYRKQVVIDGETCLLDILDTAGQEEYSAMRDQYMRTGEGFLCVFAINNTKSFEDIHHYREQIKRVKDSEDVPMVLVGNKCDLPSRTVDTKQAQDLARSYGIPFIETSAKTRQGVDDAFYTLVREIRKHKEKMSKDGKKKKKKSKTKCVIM
Test: Binding to KRAS by surface plasmon resonance (SPR), dissociation constant KD
Details: Single Cycle Kinetics, 1:1 binding model
observed property: Kd (nM)
Kindly answer with a numeric value in nM, unit omitted.

Example results:
[
  {
    "compound": "CCCN1C(=O)C[C@@H](C(=O)N(C)C)N(C)C(=O)[C@H](C2CCCC2)N(C)C(=O)C2(CCC2)NC(=O)[C@@H]2C[C@@H](OCC)CN2C(=O)[C@H](CCc2cc(F)c(C(F)(F)F)c(F)c2)NC(=O)CN(C)C(=O)[C@H](Cc2ccc(C(F)(F)F)cc2)N2CC/C=C\\C[C@@H](C2=O)N(C)C(=O)CN(C)C(=O)[C@H]([C@@H](C)CC)NC(=O)[C@@H]1CC(C)C [PP1825]",
    "observed property": "Kd",
    "unit spec": "nM",
    "val": 0.14
  },
  {
    "compound": "CCCOC[C@H]1C(=O)N[C@@H]([C@@H](C)CC)C(=O)N(C)CC(=O)N(C)[C@H]2C/C=C\\CCN(C2=O)[C@@H](Cc2ccc(C)cc2)C(=O)N(C)CC(=O)N[C@@H](CCc2ccc(C(F)(F)F)c(Cl)c2)C(=O)N2C[C@H](CC)C[C@H]2C(=O)NC2(CC(C)(C)C2)C(=O)N(C)[C@@H](C2CCCC2)C(=O)N(C)[C@H](C(=O)N(C)C)CC(=O)N1C [PP2235]",
    "observed property": "Kd",
    "unit spec": "nM",
    "val": 0.28
  }
]

input: Any idea what its Kd is? The compound is CC[C@H](C)[C@@H]1NC(=O)[C@H](CC(C)C)N(C)C(=O)C[C@@H](C(=O)N(C)C)N(C)C(=O)[C@H](C2CCCC2)N(C)C(=O)C2(CC(C)(C)C2)NC(=O)[C@@H]2C[C@@H](C)CN2C(=O)[C@H](CCc2cc(F)c(C(F)(F)F)c(F)c2)NC(=O)CN(C)C(=O)[C@H](Cc2ccc(C)cc2)N2CC/C=C\C[C@@H](C2=O)N(C)C(=O)CN(C)C1=O [PP2223]
output: 0.1

====

Target: UniProt:P01116
Assay: Binding to KRAS by surface plasmon resonance (SPR), dissociation constant KD
Conditions: Single Cycle Kinetics
Catalogue of compounds with associated Kd
Please respond with the number in nM and leave the unit unwritten.

input: Recorded Kd of CCO[C@@H]1C[C@H]2C(=O)NC3(CC(C)(C)C3)C(=O)N(C)[C@@H](C3CCCC3)C(=O)N(C)[C@H](C(=O)N(C)CC)CC(=O)N(C)[C@@H]([C@H](C)OC)C(=O)N[C@@H]([C@@H](C)CC)C(=O)N3CCC[C@H]3C(=O)N(C)[C@H]3C/C=C\CCN(C3=O)[C@@H](Cc3ccc(C(F)(F)F)cc3)C(=O)N(C)CC(=O)N[C@@H](CCc3cc(F)c(C(F)(F)F)c(F)c3)C(=O)N2C1 [PP3223] , please.
output: 1.1

input: Check CC[C@H](C)[C@@H]1NC(=O)[C@H](CC(C)C)N(C)C(=O)C[C@@H](C(=O)N2CCOCC2)N(C)C(=O)[C@H](C2CCCC2)N(C)C(=O)C2(CCC2)NC(=O)[C@@H]2CC(F)(F)CN2C(=O)[C@H](CCc2ccc(C(F)(F)F)c(Cl)c2)NC(=O)CN(C)C(=O)[C@H](Cc2ccc(F)cc2)N2CCCCC[C@@H](C2=O)N(C)C(=O)CN(C)C1=O [PP0969] too.
output: 0.12

====

Target: GDP-bound KRAS wild-type protein (Homo sapiens)
Test: Binding to KRAS by surface plasmon resonance (SPR), dissociation constant KD
Settings: Single Cycle Kinetics, 1:1 binding model
Measured pKd, listed per entry.
// returns pKd (minus log10 of molar concentration), number only

[
  {
    "substance smiles": "CCO[C@@H]1C[C@H]2C(=O)NC3(CCC3)C(=O)N(C)[C@@H](C3CCCC3)C(=O)N(C)[C@H](C(=O)N3CCOCC3)CC(=O)N(C)[C@@H](CC(F)F)C(=O)N[C@@H]([C@@H](C)CC)C(=O)N(C)CC(=O)N(C)[C@H]3CCCCCN(C3=O)[C@@H](Cc3ccc(F)cc3)C(=O)N(C)CC(=O)N[C@@H](CCc3cc(F)c(C(F)(F)F)c(F)c3)C(=O)N2C1",
    "pKd": 10.09
  },
  {
    "substance smiles": "CCO[C@@H]1C[C@H]2C(=O)NC3(CCC3)C(=O)N(C)[C@@H](C3CCCC3)C(=O)N(C)[C@H](C(=O)N(C)C)CC(=O)N(C)[C@@H](CSC)C(=O)N[C@@H]([C@@H](C)CC)C(=O)N(C)CC(=O)N(C)[C@H]3C/C=C\\CCN(C3=O)[C@@H](CC3CCCCC3)C(=O)N(C)CC(=O)N[C@@H](CCc3cc(F)c(C(F)(F)F)c(F)c3)C(=O)N2C1",
    "pKd": 9.89
  },
  {
    "substance smiles": "CC[C@H](C)[C@@H]1NC(=O)[C@H](CC)N(C)C(=O)C[C@@H](C(=O)N(C)C)N(C)C(=O)[C@H](C2CCCC2)N(C)C(=O)C2(CCC2)NC(=O)[C@@H]2CCCN2C(=O)[C@H](CCc2cc(F)c(C(F)(F)F)c(F)c2)NC(=O)CN(C)C(=O)[C@H](Cc2ccc(C(F)(F)F)cc2)N2CC/C=C\\C[C@@H](C2=O)N(C)C(=O)CN(C)C1=O",
    "pKd": 10.03
  },
  {
    "substance smiles": "CCCOC[C@H]1C(=O)N[C@@H]([C@@H](C)CC)C(=O)N(C)CC(=O)N(C)[C@H]2C/C=C\\CCN(C2=O)[C@@H](Cc2ccc(C)cc2)C(=O)N(C)CC(=O)N[C@@H](CCc2cc(F)c(C(F)(F)F)c(F)c2)C(=O)N2C[C@H](C)C[C@H]2C(=O)NC2(CCCC2)C(=O)N(C)[C@@H](C2CCCC2)C(=O)N(C)[C@H](C(=O)N(C)C)CC(=O)N1C",
    "pKd": 9.70
  },
  {
    "substance smiles": "CC[C@H](C)[C@@H]1NC(=O)[C@H](CC(C)C)N(C)C(=O)C[C@@H](C(=O)N2CCOCC2)N(C)C(=O)[C@H](C2CCCC2)N(C)C(=O)C2(CCCC2)NC(=O)[C@@H]2CCCN2C(=O)[C@H](CCc2ccc(C(F)(F)F)c(Cl)c2)NC(=O)CN(C)C(=O)[C@H](Cc2ccc(C)cc2)N2CC=CC[C@@H](C2=O)N(C)C(=O)CN(C)C1=O",
    "pKd": 9.85
  }
]

input: Form field: pKd recorded for `CCCC[C@H]1C(=O)NC2(CCC2)C(=O)N(C)[C@@H](C2CCCC2)C(=O)N(C)[C@H](C(=O)N(C)C)CC(=O)N(C)[C@@H](CC)C(=O)N[C@@H]([C@@H](C)CC)C(=O)N(C)CC(=O)N(C)[C@H]2C/C=C\CCN(C2=O)[C@@H](Cc2ccc(C(F)(F)F)cc2)C(=O)N(C)CC(=O)N[C@@H](CCc2cc(F)c(C(F)(F)F)c(F)c2)C(=O)N1C` with GDP-bound KRAS wild-type protein (Homo sapiens) (enter value)
output: 9.77

input: What would you report for `CCC[C@H]1C(=O)N[C@@H]([C@@H](C)CC)C(=O)N(C)CC(=O)N(C)[C@H]2C/C=C\CCN(C2=O)[C@@H](Cc2ccc(C(F)(F)F)cc2)C(=O)N(C)CC(=O)N[C@@H](CCc2ccc(C(F)(F)F)c(OC)c2)C(=O)N2C[C@H](OCC)C[C@H]2C(=O)NC2(CCC2)C(=O)N(C)[C@@H](C(CC)CC)C(=O)N(C)[C@H](C(=O)N(C)C)CC(=O)N1C` ?
output: 9.77
